assay: yeast display, Sf9 membrane polyspecificity reagent, FACS + sequencing; frameworks hold sequencing errors
attribute measured: polyreactivity (PSR sort gate)

Record excerpt, results attached:
>>> result("QVQLVESGGGLVQAGGSLRLSCAASGRTLWRYAMGWYRQAPGKERELVASIRSGGSTYYADSVKGRFTISRDNAKNTVYLQMNSLKPEDTAVYYCAARYYWGAEAGYYYWGQGTQVTVSS")
"high polyreactivity"
>>> result("QVQLVESGGGLVQAGGSHRLSCAASGYTFARNAMGCDRQAPGKDRELVAAINWSGTNTYYADSVKGRFTISRDSAMNTVYLQMNSLKPEDTAVYYCAKDLYFSGYEFDYWGQGTQVTVSS")
"low polyreactivity"
>>> result("QVQLVESGGGLVQAGGSLRLICAASGSTFYEYAMGWYRQAPGKERELVAAISSNGARTYYADSVKVRFTISRDNAKNTVYLQMISLKPEDTAVYYCALVYRYAHTKYDYWGQGTQVTVSS")
"high polyreactivity"
>>> result("QVQLVESGGGLVQAGGSLRLSCAASGSIFGAYTMGWYRQAPGKERELVAAISRSGSTYYADSVKGRFTISRDNAKNTVYLQMKSLKPEDTAVYYCYGVGYSGLRRYYKYDYWGQGTQVTVSS")
"high polyreactivity"

Let us examine a further case.
Query: Which polyreactivity (PSR sort gate) is reported for this sequence? QVQLVESGGGLVQAGGSLRLSCAASGSTFVWYAMGWYRQAPGKERELVAVIDWSGGSTSYADSVKGRFTISRDNAKNTVYLQMNSLKPEDTAVYYCAADSGHYYGLYYWGQGTQVTVSS
Result: low polyreactivity

---

test: yeast display, Sf9 membrane polyspecificity reagent, FACS + sequencing; frameworks hold sequencing errors
attribute measured: polyreactivity (PSR sort gate)

>>> result("QVQLVESGGGLVQAGGSVRLSCAASGFIFYDYVMGWYRQAPGKERELVAAISASGGSTYYADSVKGRFTISRDYAKNTVYLQMNSLKPEDTAVYYCAAPRYYYYWRDYWGQGTQVTVSS")
"high polyreactivity"
>>> result("QVQLVESGGGLVQAGGSVRLSCAASGFIFTDNAMGWYRQPPLKERELVAAINLSGTRTYYADSVKGRFTISLDNAKNTVSLQMNSLKPEDTAVYYCNISEDYSYEYWGQGTQVTVSS")
"low polyreactivity"
>>> result("QLQLVESRGGLVQAGGSLRLSCASSGFIFKQNAMGWYRQAPGNERELVAAISVSGGSTYYADSVKGRFTISRDNAKNTVYLQMNSLKPEYSAVYYCNTRDRGDVVTGLDYWGQGTQVTVSS")
"low polyreactivity"
>>> result("QVQLVESGGGLVQAGGSLRLSCAASGITFSHNAMGWYRQAPGKERELVAAITRSGRSTYYADSVKGRFTISRDNAKNTVYLQMNSLKPEDTAVYYCSTDNHQRRAGSGYWGQGTQVTVSS")
"low polyreactivity"
>>> result("QVQLVESGGGLVQAGGSLRLSCAASGITFERNGMGWYRQAPGKERELVAAIRSGGSTYYADSVKGRFTISRDNAKNTVYLQMNSLKPEDTAVYYCNAPYGRQGYDYWGQGTQVTVSS")
"low polyreactivity"
>>> result("QVQLVESGGGLVQAGGSLRLSCAASGYTFHDYAMGWYRQAPGKERELVAAISKRGGSTYYADSVKGRFTISRDNAKNTVYLQMNSLKPEDTAVYYCAKGGPHRGTGLNDYWGQGTQVTVSS")
"high polyreactivity"
>>> result("QVQLVESGGGLVQAGGSLRLSCAASGYIFTEYAMGWYRQAPGKERELVAAIDWSGGSTYYADSVKGRFTISRDNAKNTVYLQMNSLKPEDTAVYYCAKYYYTSIVGYDSWGQGTQVTVSS")
"low polyreactivity"
>>> result("QVQLVESGGGLVQAGGSLRLSCAASGSIYLWKAMGWYRQAPGKERELVAAIDSGGSTYAESVKGRFTISRDNAKNTVYLQMNSLKPEDTAVYYCAAEIPDEWPYDYWGQGTQVTVSS")
"low polyreactivity"

Hi team, please reply with polyreactivity (PSR sort gate) for each item in this list.
1. QVQLVESGGGLVQAGVSLRLSCAASGITFVNNDMGWYRQAPGKERELVAAISSSGGSTYYADSVKGRFTISRDNAKNTDYLQMNSLKPEDTAVYYCAAPWYNAGRFRYYYWGQGTQVTVSS
2. QVQLVESGGGLVQAGGSLRLSCAASGFILAQNAKGWSRQAPGKEWELVAAISRRGGRTSYADSVKGRFTISRDNAKNTVYLQMNSLKPEDTAVYYCAALPPRASSDAGGWYVAEDYWGQGTQVTVSS
3. QVQLVESGGGLVQAGGRLRLSCAASGSIFVIYGMGWYRQAPGKERELVAAISDRGGSTYYADSVKGRFTISRDNAKNTVYLQMNSLKPEDTAVYYCAADRQYRYATRYDYWGQGTQVTVSS

Result:
1: high polyreactivity; 2: high polyreactivity; 3: low polyreactivity

---

assay: yeast display, Sf9 membrane polyspecificity reagent, FACS + sequencing; frameworks hold sequencing errors
attribute measured: polyreactivity (PSR sort gate)

>>> result("QVQLVESGGGLVQAGGSLRLSCAASGFIFPYYAMGWYRQAPGKERELVATITSSGGSTYYADSVKGRFTISRDNAKNTVYLQMNSLKPEDTAVYYCAARRRYKYYGSRYDYWGQGTQVTVSS")
"high polyreactivity"
>>> result("QVQLVESGGGLVQAGGSLRLCCAASGRTFPYYALGWYRQAPGKESELVAGITSNAGSTYYADSVKGRFSISRDNAKNTVYLHRHRLKAEDTAVYYCAKYGRATRGLDNYWGQGTQVTVSS")
"high polyreactivity"

---

assay: yeast display, Sf9 membrane polyspecificity reagent, FACS + sequencing; frameworks hold sequencing errors
attribute measured: polyreactivity (PSR sort gate)

>>> result("QVQLVESGGGLVQAGGRLRLSCAASGRTFGQNAMGWYRQAPGKERELVAVISSRGGSTYYADSVKGRFTISRDNAKNTVYLQMNSLKPEDTAVYYCAKARRKPGAVDYWGQGTQVTVSS")
"high polyreactivity"
>>> result("QVQLVESGGGLVQAGGSLRLSFAASGSIFDDNAMGWYRQAPGKERELVAAITSTDSTNYADSVKGRFTISRDNAKNTVYLQMNSLKPEDTAVYYCARDIKHATSYEALYYSDYDYWGQGTQVTVSS")
"low polyreactivity"
>>> result("QVQLVESGGGLLQAGGRLRLSCAASGSIFPYYAMGWYRQAPGKERALVAAISDSGDSTYYADSVKGRFTMSRDNAKNTVYLQMNSLKPEDTAVYYCAADQTSSYYDPWGDYWGQGTQVTVSS")
"low polyreactivity"
>>> result("QVQLVESGGGLVQAGGSLRLSCAASGSILGYYAMGWYRQAPGKERELVAAITASGGSTYYADSVKGRFTISRDNAKNTVYLQMNSLKPEDTAVYYCNADGGPGYPRAYDYWGQGTQVTVSS")
"low polyreactivity"

Here is another sequence to look at.
Query: For QVQLVESGGRLVQAGGSLRLSCAASGSTFTLYAMGWYRQAPGKERELVAAITWRGGSTFYADSVKGRFTISRDNAKNSVYLQMNSLKPEDTAVYYCAADYYSYVVGRIYYWGQGTQVNVSS , what is its reported polyreactivity (PSR sort gate)?
Result: high polyreactivity

---

test: yeast display, Sf9 membrane polyspecificity reagent, FACS + sequencing; frameworks hold sequencing errors
attribute measured: polyreactivity (PSR sort gate)

>>> result("QVQLVESGGGLVQAGGSLRLSCAASGSTFFVYDMGWYRQAPGKERELVAAISISDGGTYYADSVKGRFTISRDNAKNTVYLQMNSQKPVDTAVYYCAADYSERYFRGYDYWGQGTQVTVSS")
"low polyreactivity"
>>> result("QVQLVESGGGLVQAGGSLRLSCAASGRIFNAYAMGGYRQAPGKERELVAAISGGGRTYYADSVKGRFTISRDNAKNTVYLQMNSLKPEDTAVYYCAADSPTQSTLGKYDYWGQGTQVTVSS")
"high polyreactivity"
>>> result("QVQLVESGGGLVQAGGSLRLSCAASGRTFGTYAMGWSRQAPGKERELVAAITWRTGNTYYADSVKGRFTISRDNAKNTVYLQMNSLKPEDTAVYYCAKTSSGRKFYWGQGTQVTVSS")
"high polyreactivity"
>>> result("QVQLVESGGGLVQAGGSLRLSCAASGSIFSSYAMGWYRQAPGKERELVAAIDGSGGSTYADSVKGRFTISRDNAKITVYLQMNRLKPEDTAVYYCAVDSFLVYSAVRPYDYWGLGTQVTVSS")
"low polyreactivity"

Then there is this sequence:
Query: Need polyreactivity (PSR sort gate) of QVQLVESGGGLVQAGGSLRFSCAASGNIIDLYAMGWYRQARGQERVLVAAITRSSSRTYYADSVKGRFTISRDIAKNTVYLQMNSLKPEDTAVYYCRANQVNRLDYWGQGTQVTVSS , thanks.
Result: high polyreactivity

---

experiment: yeast display, Sf9 membrane polyspecificity reagent, FACS + sequencing; frameworks hold sequencing errors
attribute measured: polyreactivity (PSR sort gate)

Answered examples (4):
>>> result("QVQLVESGGGLVQAGGSLRLSCAASGSIFPYYAMGWYRQAPGKERELVAAINWSGDSTYYADSVKGRFTISRDNAKNTVYLQMNSLKPEDTAVYYCAARSRWRYDYWGQGTQVTVSS")
"low polyreactivity"
>>> result("QVQLVESGGGLVQAGGSLRLSCAASGNIFRRYTLGWSRQAPGKERELVAAISSGGSTNYADSVKGRFTLSRDNAKNTVYLQMNSLKPEDTAVYYCAATRRYIQYGYDYWGQGTQVTVSS")
"high polyreactivity"
>>> result("QVQLVESVGGLVQAGGSLRLSCAASGGMGWYRQAPGKERELVATISSVGSTNYADSVKGRFTISRDNAKNTVYLQMNSLKPEDTAVYYCNATGVQYFLYGYWGQGTQVTVSS")
"low polyreactivity"
>>> result("QVQLVESGGGLVQAGGSLRLSCAASGSIFTRNAMGWYRQAPGKEREFVAAISSSGVSTYYADSVKGRFTISRDNAKNTVYLQMNSLKPEDTAVYYCAARWGTKSGRYDYWGQGTQVTVSS")
"high polyreactivity"

Here is the next item to consider.
Query: Fill in the blank: the reported polyreactivity (PSR sort gate) of QVQLVESGGGLVQAGCSLRLSCAASGRIFSFYVMGWYRQAPGKERELVAAISLSGGSTYYADSVKGRFTISRDNAKNTVYLQMNSLKPEDTAVYYCNAVLYARLRDRWARYDYWGQGTQVTVSS is ____.
Result: high polyreactivity

Reference source: the nanobody polyreactivity screen of Harvey et al. (2022)
